Below, each entry is listed alongside its reported pEC50.
# ASSAYED TARGET: Toll-like receptor 7 (Mus musculus)
# Sequence (P58681 whole entry): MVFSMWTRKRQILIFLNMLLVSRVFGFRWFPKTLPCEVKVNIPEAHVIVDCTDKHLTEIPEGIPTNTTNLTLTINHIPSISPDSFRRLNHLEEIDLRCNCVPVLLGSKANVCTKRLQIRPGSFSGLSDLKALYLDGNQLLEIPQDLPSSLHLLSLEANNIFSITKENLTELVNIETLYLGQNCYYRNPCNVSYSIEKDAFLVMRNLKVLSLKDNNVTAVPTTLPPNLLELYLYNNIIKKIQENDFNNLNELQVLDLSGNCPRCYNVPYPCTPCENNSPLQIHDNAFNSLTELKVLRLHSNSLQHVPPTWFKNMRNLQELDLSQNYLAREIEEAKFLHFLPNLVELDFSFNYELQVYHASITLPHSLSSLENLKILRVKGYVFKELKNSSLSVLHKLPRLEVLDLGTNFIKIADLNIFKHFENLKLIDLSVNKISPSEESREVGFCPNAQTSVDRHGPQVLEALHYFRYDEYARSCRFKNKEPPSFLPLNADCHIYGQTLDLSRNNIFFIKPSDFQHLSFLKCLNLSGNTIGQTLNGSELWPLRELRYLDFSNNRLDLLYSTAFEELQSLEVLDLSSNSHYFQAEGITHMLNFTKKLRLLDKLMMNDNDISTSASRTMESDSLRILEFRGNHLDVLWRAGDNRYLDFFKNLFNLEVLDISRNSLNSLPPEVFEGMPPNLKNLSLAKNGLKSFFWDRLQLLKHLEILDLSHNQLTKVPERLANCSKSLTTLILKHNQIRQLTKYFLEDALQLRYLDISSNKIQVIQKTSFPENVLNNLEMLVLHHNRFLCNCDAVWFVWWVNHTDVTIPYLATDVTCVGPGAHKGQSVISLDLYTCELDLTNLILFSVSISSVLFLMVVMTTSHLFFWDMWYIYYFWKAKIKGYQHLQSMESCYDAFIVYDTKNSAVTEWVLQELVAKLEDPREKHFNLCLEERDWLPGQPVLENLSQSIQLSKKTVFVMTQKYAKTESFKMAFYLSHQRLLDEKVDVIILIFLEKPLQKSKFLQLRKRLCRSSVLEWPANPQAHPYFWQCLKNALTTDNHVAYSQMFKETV
# PROCEDURE TEXT: Agonist activity at mouse TLR7 expressed in HEK293 cells co-expressing NF-kappaB/AP-1 inducible SEAP reporter gene measured for 24 hrs by colorimetric analysis
# pEC50 is unitless: minus log10 of the molar concentration; print number only

I am curious: what pEC50 value has been reported for CCCCNc1nc(N)nc2ncn(Cc3ccc(CN(CC)CC)cc3OC)c12 ? 7.38

Do the same for CCCCOc1nc(N)c2c(n1)N(Cc1cccc(CN3CCCC3)c1)CC(=O)N2 [VESATOLIMOD] please 5.34

***
I am curious: what pEC50 value has been reported for CCOCc1nc2c(N)nc3ccccc3c2n1CC(C)(C)C ? 6.52
